Sourced from patent US20050209278A1

assay_target: MMP-14 (Homo sapiens, UniProt P50281)
Construct: The catalytic domain enzyme was expressed in E. coli inclusion bodies, solubilized in urea; made in house
method: In vitro MMP inhibition, Ki determination (fluorogenic substrate II)
Assay type: biochemical
test_conditions: value not in parenthesis; read-out: MMP-14 Ki
// reported Ki for each item listed
value_kind: Ki

CCCCOc1ccc(N2CCN(S(=O)(=O)C3(C(=O)NO)CCN(c4ncccn4)CC3)CC2)cc1: 2060 nM
O=C(NO)C1(S(=O)(=O)N2CCN(c3ccc(COCC(F)(F)C(F)(F)F)cc3)CC2)CCOCC1: > 10000 nM
O=C(NO)C1(S(=O)(=O)N2CCN(c3ccc(OC(F)(F)C(F)F)cc3)CC2)CCSCC1: 1150 nM
O=C(NO)C1(S(=O)(=O)N2CCN(c3ccc4c(c3)OC(F)(F)C(F)(F)O4)CC2)CCOCC1: > 10000 nM
